target: hemagglutinin on live influenza A virus, A/California/4/09 H1N1 (Influenza A virus …); test: cell-based or functional assay
Assignment: determine reported % Neutralization for the given binders.
Numeric only. Scale: %

% Neutralization lookup needed for TCN-543 (5081_G23) (antibody, V domains shown) VH: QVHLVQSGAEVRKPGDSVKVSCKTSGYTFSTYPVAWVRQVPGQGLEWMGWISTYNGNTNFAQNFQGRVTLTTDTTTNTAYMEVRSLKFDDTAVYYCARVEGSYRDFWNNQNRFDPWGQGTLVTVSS VL: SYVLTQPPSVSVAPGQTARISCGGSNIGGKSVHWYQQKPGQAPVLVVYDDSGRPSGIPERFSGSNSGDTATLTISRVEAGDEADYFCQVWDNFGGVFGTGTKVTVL , thanks. 0

% Neutralization lookup needed for TCN-555 (5246_L16) (antibody, V domains shown) VH: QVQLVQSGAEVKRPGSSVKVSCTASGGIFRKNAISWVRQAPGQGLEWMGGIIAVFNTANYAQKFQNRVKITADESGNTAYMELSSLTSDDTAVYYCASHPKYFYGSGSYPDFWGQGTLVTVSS VL: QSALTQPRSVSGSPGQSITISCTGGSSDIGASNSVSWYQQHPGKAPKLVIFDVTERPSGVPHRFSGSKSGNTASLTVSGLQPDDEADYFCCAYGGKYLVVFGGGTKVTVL , thanks. 89
